# METHOD SUMMARY: Cytotoxicity in mock-infected HeLa cells (tetrazolium-based colorimetric assay)
# Type: cell-based
# EXPERIMENTAL PARAMETERS: human; mock-infected HeLa cells, MTT, seven days; read-out: CC50 (cytotoxic dose for 50% of the cells)
METRIC: CC50 at 7 days (µM)

{"COMPOUND": "COCCOC(c1cccc(C)n1)n1c(NC2CCN(CC(N)C(C)C)CC2)nc2c(C)cc(Cl)cc21.Cl.Cl.Cl.O.O.O (stereo not shown) [Compound 88, trihydrochloride trihydrate]", "READOUT QUALIFIER": "=", "EXPERIMENTAL RESULT": 20}
{"COMPOUND": "Cc1cccc(C(OCCO)n2c(NC3CCN(CCN)CC3)nc3ccccc32)n1 (racemic) [Compound 13, monohydrate]", "READOUT QUALIFIER": ">", "EXPERIMENTAL RESULT": 100}
{"COMPOUND": "CCOC(c1cccc(Br)n1)n1c(NC2CCN(CC(N)C(C)C)CC2)nc2c(C)cccc21 (racemic) [Compound 87, monohydrate]", "READOUT QUALIFIER": "=", "EXPERIMENTAL RESULT": 10.1}
{"COMPOUND": "CCOC(c1nc(C)ccc1OCc1ccccc1)n1c(NC2CCN(CCN)CC2)nc2ccccc21.Cl.Cl.Cl.O.O (racemic) [Compound 11, trihydrochloride dihydrate]", "READOUT QUALIFIER": "=", "EXPERIMENTAL RESULT": 9.95}

---

# Tested on: Respiratory Syncytial Virus
# METHOD SUMMARY: In vitro screening for activity against Respiratory Syncytial Virus (tetrazolium-based colorimetric assay, protection against cytopathology in HeLa cells)
# Assay type: cell-based
# EXPERIMENTAL PARAMETERS: CC50 (HeLa) / IC50 (RSV)
Output Condition met for records whose SI (selectivity index, CC50 divided by IC50) is lower than 10000, Condition not met for records at or above 10000.

{"MOLECULE": "CCOC(c1nc(C)ccc1OCc1ccccc1)n1c(NC2CCN(CCN)CC2)nc2ccccc21.Cl.Cl.Cl.O.O (racemic)", "ASSIGNED LABEL": "Condition met"}
{"MOLECULE": "CCOC(c1cccc(Br)n1)n1c(NC2CCN(CC(N)C(C)C)CC2)nc2c(C)cccc21 (racemic) [Compound 87, monohydrate]", "ASSIGNED LABEL": "Condition not met"}
{"MOLECULE": "CCOC(c1cccc(Br)n1)n1c(NC2CCN(CC(N)C(C)C)CC2)nc2ccccc21 (racemic)", "ASSIGNED LABEL": "Condition not met"}
{"MOLECULE": "CCOC(c1cccc(C)n1)n1c(NC2CCN(CC(N)C(C)C)CC2)nc2ccccc21 (stereo not drawn)", "ASSIGNED LABEL": "Condition met"}
